Target: Inward rectifier potassium channel 2 (Mus musculus)
pIC50: −log10 of the molar value.
measured property: pIC50

{"compound": "Cc1ccc(S(=O)(=O)N[C@@H](C)c2ccccc2)cc1", "target under test": "Inward rectifier potassium channel 2 (Mus musculus)", "measured property": "pIC50", "recorded measurement": 4.82}
{"compound": "c1ccc(COc2ccc(OCCCNC3CCCC3)cc2)cc1", "target under test": "Inward rectifier potassium channel 2 (Mus musculus)", "measured property": "pIC50", "recorded measurement": 4.93}
{"compound": "Cc1ccc(Nc2cc(C)nc3c(C)cccc23)cc1", "target under test": "Inward rectifier potassium channel 2 (Mus musculus)", "measured property": "pIC50", "recorded measurement": 5.12}
{"compound": "Cc1noc(C)c1COC(=O)CCN1c2ccccc2Sc2ccccc21", "target under test": "Inward rectifier potassium channel 2 (Mus musculus)", "measured property": "pIC50", "recorded measurement": 5.12}
{"compound": "C[C@H](NS(=O)(=O)c1cccc(Br)c1)c1ccccc1", "target under test": "Inward rectifier potassium channel 2 (Mus musculus)", "measured property": "pIC50", "recorded measurement": 4.96}

[1] CC(NS(=O)(=O)c1ccc(Br)cc1)c1ccccc1 (configuration not stated)
[2] C[C@H](NS(=O)(=O)c1ccc(Cl)cc1)c1ccccc1
[3] CC(O)CNCCCOc1cccc(Oc2ccccc2)c1 (configuration not stated)
stdin: Sort low-to-high on pIC50, please. Form entry: labels listed in requested order.
stdout: 2, 1, 3

----------
# IC50 per entry for Inward rectifier potassium channel 2 (Mus musculus)

{"chemical smiles": "C[C@@H](NS(=O)(=O)c1ccc(Cl)cc1)c1ccccc1", "IC50": "13.4 µM"}
{"chemical smiles": "Cc1ccc2nc(N3CCN(CCO)CC3)nc(-c3ccccc3)c2c1", "IC50": "13.9 µM"}
{"chemical smiles": "C[C@@H](NS(=O)(=O)c1ccccc1Br)c1ccccc1", "IC50": "13 µM"}

Now for a further molecule.
stdin: Entry C[C@H](NS(=O)(=O)c1cc(Cl)cc(Cl)c1O)c1ccccc1 has what IC50?
stdout: 34.1 µM

----------
Target: Inward rectifier potassium channel 2 (Mus musculus)
pIC50: −log10 of the molar value.
measured property: pIC50

{"chemical smiles": "C[C@H](NS(=O)(=O)c1ccccc1)c1ccccc1", "pIC50": 5.31}
{"chemical smiles": "c1ccc(CNc2c3ccccc3nc3ccccc23)cc1", "pIC50": 4.88}

[a] Cc1ccc2nc(NCc3ccccc3)[nH]c2c1
[b] C[C@H](NS(=O)(=O)c1ccc(Br)cc1)c1ccccc1
stdin: Recorded pIC50 values differ for a and b ; which one is higher? Which one? Tell me its label.
stdout: b

----------
pIC50: −log10 of the molar value.
# pIC50 per entry for Inward rectifier potassium channel 2 (Mus musculus)
measured property: pIC50

{"chemical smiles": "C[C@H](NS(C)(=O)=O)c1ccccc1", "pIC50": 5.32}
{"chemical smiles": "C[C@H](NS(=O)(=O)c1ccccc1Br)c1ccccc1", "pIC50": 4.89}
{"chemical smiles": "Cc1ccc(S(=O)(=O)N[C@H](C)c2ccccc2)cc1", "pIC50": 5.02}

[a] C[C@@H](NS(=O)(=O)c1cccc(Br)c1)c1ccccc1
[b] Cc1ccc(C)c(OCCCNCc2ccccc2)c1
[c] C[C@@H](NS(=O)(=O)c1ccc(Br)cc1)c1ccccc1
stdin: # desc sort on pIC50 across 3 compounds Form entry: labels listed in requested order.
stdout: b, a, c
